Values were extracted from ChEMBL document CHEMBL5154787.

test: Solubility of compound in FessiF incubated for 24 hrs; format: physicochemical
measure: solubility at 24 h

(Q) # solubility at 24 h lookup, item COC(=O)Nc1cc(-c2ccc(OC[C@@](C)(N)CC(C)C)c(C)n2)ccn1
(A) > 1000 µg/mL

---

Biological target: Hepatic sodium/bile acid cotransporter (Homo sapiens)
Sequence (Q14973 whole entry): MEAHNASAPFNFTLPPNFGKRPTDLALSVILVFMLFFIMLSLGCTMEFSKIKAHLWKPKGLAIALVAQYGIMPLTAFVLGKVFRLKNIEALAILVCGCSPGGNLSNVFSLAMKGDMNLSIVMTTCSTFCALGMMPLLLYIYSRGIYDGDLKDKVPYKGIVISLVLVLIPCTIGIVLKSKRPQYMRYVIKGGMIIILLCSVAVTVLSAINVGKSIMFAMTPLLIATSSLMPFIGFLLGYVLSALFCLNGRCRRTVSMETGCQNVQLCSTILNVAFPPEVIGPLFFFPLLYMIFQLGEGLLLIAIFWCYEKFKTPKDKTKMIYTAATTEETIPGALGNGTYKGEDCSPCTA
pIC50: −log10 of the molar value.
measure: pIC50

(Q) # pIC50 lookup, item CC(C)C[C@](C)(N)COc1cnc(-c2ccnc(C(F)F)c2)cc1C(F)F
(A) < 4.30

---

test: Ratio of drug concentration in spinal cord to plasma in rat at 3 mg/kg, po measured at 4 hrs post dose; assay type: ADME, organism-based
measure: Kp at 4 h
Numbers only.

(Q) # Kp at 4 h lookup, item CC(C)C[C@](C)(N)COc1cnc(-c2ccnc(C(F)F)c2)cc1C(F)F
(A) 17.6

---

Exercise: state measured IC50 for each of the molecules provided.
test: Inhibition of calcium channel (unknown origin); design: species or system Homo sapiens
Answers are plain numbers, in µM.

Worked set:
INSERT INTO assay_data (molecularstring, measure, quantityunit, observedmeasurement) VALUES
  ('COC(=O)Nc1cc(-c2cnc(OC[C@@](C)(N)CC(C)C)c(C)c2)ccn1', 'IC50', 'µM', 35.3),
  ('CC(C)C[C@](C)(N)COc1cnc(-c2ccnc(C(F)F)c2)cc1C(F)F', 'IC50', 'µM', 18.8);

(Q) # IC50 lookup, item COC(=O)Nc1cc(-c2ccc(OC[C@@](C)(N)CC(C)C)c(C)n2)ccn1
(A) 16

---

assay: Drug concentration in CCI induced tactile allodynia in Sprague-Dawley rat spinal cord at 3 mg/kg, po measured at 7.5 hrs post dose; format: ADME, organism-based; settings: read-out: Ct
measure: concentration at 7.5 h (µM)
Give bare numbers, in µM.

INSERT INTO assay_data (molecularstring, observedmeasurement) VALUES
  ('COC(=O)Nc1cc(-c2cnc(OC[C@@](C)(N)CC(C)C)c(C)c2)ccn1', 0.72);

(Q) # concentration at 7.5 h lookup, item COC(=O)Nc1cc(-c2ccc(OC[C@@](C)(N)CC(C)C)c(C)n2)ccn1
(A) 4.4

---

assay: Solubility of compound at pH 3 measured after 24 hrs; format: physicochemical; settings: buffer
measure: solubility at 24 h

(Q) # solubility at 24 h lookup, item COC(=O)Nc1cc(-c2ccc(OC[C@@](C)(N)CC(C)C)c(C)n2)ccn1
(A) > 1000 µg/mL

---

test: Plasma concentration in CCI induced tactile allodynia in Sprague-Dawley rat at 3 mg/kg, po measured at 7.5 hrs post dose; format: ADME, organism-based
measure: concentration at 7.5 h (nM)
Numbers only, in nM.

INSERT INTO measurements (molecularstring, observedmeasurement) VALUES
  ('COC(=O)Nc1cc(-c2ccc(OC[C@@](C)(N)CC(C)C)c(C)n2)ccn1', 500);

With those in mind, consider the next compound.
(Q) # concentration at 7.5 h lookup, item COC(=O)Nc1cc(-c2cnc(OC[C@@](C)(N)CC(C)C)c(C)c2)ccn1
(A) 140
